Let's look at some pKi data for UniProt P19793 that I collected from the literature.
Sequence (P19793 whole entry): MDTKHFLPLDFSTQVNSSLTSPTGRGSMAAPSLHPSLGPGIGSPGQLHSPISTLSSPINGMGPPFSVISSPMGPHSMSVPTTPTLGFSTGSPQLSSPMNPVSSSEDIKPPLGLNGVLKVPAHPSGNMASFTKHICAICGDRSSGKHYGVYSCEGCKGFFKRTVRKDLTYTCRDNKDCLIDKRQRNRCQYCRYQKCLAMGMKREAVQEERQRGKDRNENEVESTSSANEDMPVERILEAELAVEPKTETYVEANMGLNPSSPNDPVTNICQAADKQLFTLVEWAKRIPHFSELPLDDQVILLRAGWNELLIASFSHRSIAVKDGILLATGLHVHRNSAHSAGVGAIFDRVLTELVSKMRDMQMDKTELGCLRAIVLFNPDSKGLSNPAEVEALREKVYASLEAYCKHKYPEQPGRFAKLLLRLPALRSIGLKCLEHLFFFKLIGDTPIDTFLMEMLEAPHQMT
A value of pKi is the negative decimal logarithm of a concentration given in moles per litre.

Enquiry: Specify pKi for C/C(=C/C=C/C(C)=C/C(=O)O)c1cc(C(C)C)cc(C(C)C)c1OCCF and stop.
Return: 9.00

Enquiry: Give the reported pKi for this compound. Cc1cc2c(cc1C(OCc1ccccc1F)c1ccc(C(=O)O)cc1)C(C)(C)CCC2(C)C (stereo not drawn)
Return: 5.28

Enquiry: # return recorded pKi for input C/C(=C/C=C/C(C)=C(\F)C(=O)O)c1cc(C(C)(C)C)cc(C(C)(C)C)c1OCC(F)F
Return: 7.97
